Reference for the values: BigSolDB 2.1

# PROTOCOL_CONDITIONS: in acetone, 278.15 K
ASSAY_READOUT: solubility (mole fraction)
Just the number, please, no unit attached.

Fill blank: measured solubility (mole fraction) of the compound O=C(O)Cc1ccccc1Cl is ____.
0.225

###

# PROTOCOL_CONDITIONS: in n-propanol, 278.15 K
# solubility (mole fraction) per record follows

COMPOUND_STRING: N=C(Nc1ccccc1)Nc1ccccc1
ASSAY_READOUT: solubility (mole fraction)
MEASURED_RESULT: 0.0181

We now examine a further compound.
Fill blank: measured solubility (mole fraction) of the compound O=C(O)Cc1ccccc1Cl is ____.
0.184

###

# PROTOCOL_CONDITIONS: in ethyl acetate, 273.15 K
ASSAY_READOUT: solubility (mole fraction)
Just the number, please, no unit attached.

Fill blank: measured solubility (mole fraction) of the compound O=C(O)Cc1ccccc1Cl is ____.
0.175

###

# PROTOCOL_CONDITIONS: in water, 283.15 K
ASSAY_READOUT: solubility (mole fraction)
Just the number, please, no unit attached.

Fill blank: measured solubility (mole fraction) of the molecule O=C(O)Cc1ccccc1Cl is ____.
0.000243

###

# PROTOCOL_CONDITIONS: in cyclohexane, 318.15 K
ASSAY_READOUT: solubility (mole fraction)
Just the number, please, no unit attached.

Fill blank: measured solubility (mole fraction) of the compound O=C(O)Cc1ccccc1Cl is ____.
0.0145

###

# PROTOCOL_CONDITIONS: in n-butanol, 283.15 K
ASSAY_READOUT: solubility (mole fraction)
Just the number, please, no unit attached.

Fill blank: measured solubility (mole fraction) of the compound O=C(O)Cc1ccccc1Cl is ____.
0.19

###

# PROTOCOL_CONDITIONS: in isopropanol, 283.15 K
ASSAY_READOUT: solubility (mole fraction)
Just the number, please, no unit attached.

Fill blank: measured solubility (mole fraction) of the molecule O=C(O)Cc1ccccc1Cl is ____.
0.235

###

# PROTOCOL_CONDITIONS: in acetone, 288.15 K
ASSAY_READOUT: solubility (mole fraction)
Just the number, please, no unit attached.

Fill blank: measured solubility (mole fraction) of the compound O=C(O)Cc1ccccc1Cl is ____.
0.261

###

# PROTOCOL_CONDITIONS: in 2-butanone, 283.15 K
ASSAY_READOUT: solubility (mole fraction)
Just the number, please, no unit attached.

Fill blank: measured solubility (mole fraction) of the compound O=C(O)Cc1ccccc1Cl is ____.
0.315

###

# PROTOCOL_CONDITIONS: in 2-butanone, 298.15 K
ASSAY_READOUT: solubility (mole fraction)
Just the number, please, no unit attached.

Fill blank: measured solubility (mole fraction) of the compound O=C(O)Cc1ccccc1Cl is ____.
0.426

###

# PROTOCOL_CONDITIONS: in acetonitrile, 275.65 K
ASSAY_READOUT: solubility (mole fraction)
Just the number, please, no unit attached.

Fill blank: measured solubility (mole fraction) of the molecule N=C(Nc1ccccc1)Nc1ccccc1 is ____.
0.00911

###

# PROTOCOL_CONDITIONS: in ethylbenzene, 313.15 K
ASSAY_READOUT: solubility (mole fraction)
Just the number, please, no unit attached.

Fill blank: measured solubility (mole fraction) of the compound O=C(O)Cc1ccccc1Cl is ____.
0.132

###

# PROTOCOL_CONDITIONS: in water, 298.15 K
ASSAY_READOUT: solubility (mole fraction)
Just the number, please, no unit attached.

Fill blank: measured solubility (mole fraction) of the molecule O=C(O)Cc1ccccc1Cl is ____.
0.000506

###

# PROTOCOL_CONDITIONS: in ethyl acetate, 293.15 K
ASSAY_READOUT: solubility (mole fraction)

Fill blank: measured solubility (mole fraction) of the compound O=C(O)Cc1ccccc1Cl is ____.
0.258

###

# PROTOCOL_CONDITIONS: in water, 288.15 K
ASSAY_READOUT: solubility (mole fraction)
Just the number, please, no unit attached.

Fill blank: measured solubility (mole fraction) of the molecule O=C(O)Cc1ccccc1Cl is ____.
0.000311

###

# PROTOCOL_CONDITIONS: in 2-butanone, 278.15 K
ASSAY_READOUT: solubility (mole fraction)
Just the number, please, no unit attached.

Fill blank: measured solubility (mole fraction) of the molecule O=C(O)Cc1ccccc1Cl is ____.
0.282

###

# PROTOCOL_CONDITIONS: in water, 313.15 K
ASSAY_READOUT: solubility (mole fraction)
Just the number, please, no unit attached.

Fill blank: measured solubility (mole fraction) of the compound O=C(O)Cc1ccccc1Cl is ____.
0.00105

###

# PROTOCOL_CONDITIONS: in cyclohexane, 298.15 K
ASSAY_READOUT: solubility (mole fraction)
Just the number, please, no unit attached.

Fill blank: measured solubility (mole fraction) of the compound O=C(O)Cc1ccccc1Cl is ____.
0.00454

###

# PROTOCOL_CONDITIONS: in isobutanol, 313.15 K
ASSAY_READOUT: solubility (mole fraction)
Just the number, please, no unit attached.

Fill blank: measured solubility (mole fraction) of the compound O=C(O)Cc1ccccc1Cl is ____.
0.394

###

# PROTOCOL_CONDITIONS: in ethanol, 275.65 K
ASSAY_READOUT: solubility (mole fraction)
Just the number, please, no unit attached.

Fill blank: measured solubility (mole fraction) of the compound N=C(Nc1ccccc1)Nc1ccccc1 is ____.
0.0152

###

# PROTOCOL_CONDITIONS: in toluene, 293.15 K
ASSAY_READOUT: solubility (mole fraction)
Just the number, please, no unit attached.

Fill blank: measured solubility (mole fraction) of the compound O=C(O)Cc1ccccc1Cl is ____.
0.0617

###

# PROTOCOL_CONDITIONS: in ethylbenzene, 293.15 K
ASSAY_READOUT: solubility (mole fraction)
Just the number, please, no unit attached.

Fill blank: measured solubility (mole fraction) of the compound O=C(O)Cc1ccccc1Cl is ____.
0.0542

###

# PROTOCOL_CONDITIONS: in n-propanol, 293.15 K
ASSAY_READOUT: solubility (mole fraction)
Just the number, please, no unit attached.

Fill blank: measured solubility (mole fraction) of the molecule O=C(O)Cc1ccccc1Cl is ____.
0.268

###

# PROTOCOL_CONDITIONS: in isobutanol, 273.15 K
# solubility (mole fraction) per record follows

COMPOUND_STRING: N=C(Nc1ccccc1)Nc1ccccc1
solubility (mole fraction): 0.0128

We now examine a further molecule.
Fill blank: measured solubility (mole fraction) of the molecule O=C(O)Cc1ccccc1Cl is ____.
0.15

###

# PROTOCOL_CONDITIONS: in acetonitrile, 298.15 K
ASSAY_READOUT: solubility (mole fraction)
Just the number, please, no unit attached.

Fill blank: measured solubility (mole fraction) of the molecule O=C(O)Cc1ccccc1Cl is ____.
0.168

###

# PROTOCOL_CONDITIONS: in ethanol, 285.65 K
ASSAY_READOUT: solubility (mole fraction)
Just the number, please, no unit attached.

Fill blank: measured solubility (mole fraction) of the compound N=C(Nc1ccccc1)Nc1ccccc1 is ____.
0.0214

###

# PROTOCOL_CONDITIONS: in acetone, 283.15 K
ASSAY_READOUT: solubility (mole fraction)

Fill blank: measured solubility (mole fraction) of the compound O=C(O)Cc1ccccc1Cl is ____.
0.242

###

# PROTOCOL_CONDITIONS: in toluene, 278.15 K
# solubility (mole fraction) per record follows
Just the number, please, no unit attached.

Fill blank: measured solubility (mole fraction) of the compound O=C(O)Cc1ccccc1Cl is ____.
0.0307

Fill blank: measured solubility (mole fraction) of the compound N=C(Nc1ccccc1)Nc1ccccc1 is ____.
0.00178

###

# PROTOCOL_CONDITIONS: in acetone, 303.15 K
ASSAY_READOUT: solubility (mole fraction)
Just the number, please, no unit attached.

Fill blank: measured solubility (mole fraction) of the molecule O=C(O)Cc1ccccc1Cl is ____.
0.326

###

# PROTOCOL_CONDITIONS: in ethyl acetate, 283.15 K
ASSAY_READOUT: solubility (mole fraction)

Fill blank: measured solubility (mole fraction) of the compound O=C(O)Cc1ccccc1Cl is ____.
0.214

###

# PROTOCOL_CONDITIONS: in n-propanol, 285.65 K
ASSAY_READOUT: solubility (mole fraction)
Just the number, please, no unit attached.

Fill blank: measured solubility (mole fraction) of the molecule N=C(Nc1ccccc1)Nc1ccccc1 is ____.
0.0241

###

# solubility (mole fraction) per record follows
# PROTOCOL_CONDITIONS: in acetonitrile, 278.15 K
Just the number, please, no unit attached.

COMPOUND_STRING: O=C(O)Cc1ccccc1Cl
solubility (mole fraction): 0.0738

Fill blank: measured solubility (mole fraction) of the compound N=C(Nc1ccccc1)Nc1ccccc1 is ____.
0.0103
